Listing of entries alongside the reported hCCL1 (100 nM) residual response, Protocol #3, mAb 5 µg/mL.
measuredOn: human CCR8 (human, UniProt P51685 1-355)
experimentalDetails: cell-based or functional assay
A number alone suffices; assume %.

Examples from the recorded data:
3-49 (antibody, V domains shown) VH: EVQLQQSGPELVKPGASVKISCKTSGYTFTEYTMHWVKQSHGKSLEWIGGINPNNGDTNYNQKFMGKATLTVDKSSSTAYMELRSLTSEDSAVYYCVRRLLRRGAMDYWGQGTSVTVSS VL: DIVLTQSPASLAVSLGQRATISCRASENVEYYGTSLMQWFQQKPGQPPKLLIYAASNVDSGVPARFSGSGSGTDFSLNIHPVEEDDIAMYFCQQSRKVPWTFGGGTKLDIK    67
3-48 (antibody, V domains shown) VH: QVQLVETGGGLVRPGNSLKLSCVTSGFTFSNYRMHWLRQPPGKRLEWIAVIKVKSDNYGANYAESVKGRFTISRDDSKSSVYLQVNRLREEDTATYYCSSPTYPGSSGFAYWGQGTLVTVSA VL: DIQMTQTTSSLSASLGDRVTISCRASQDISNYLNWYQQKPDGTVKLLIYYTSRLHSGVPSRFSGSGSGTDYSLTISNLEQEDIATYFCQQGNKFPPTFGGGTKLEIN    50
3-81 (antibody, human IgG1, kappa, V domains shown, humanized, human IgG1 kappa) VH: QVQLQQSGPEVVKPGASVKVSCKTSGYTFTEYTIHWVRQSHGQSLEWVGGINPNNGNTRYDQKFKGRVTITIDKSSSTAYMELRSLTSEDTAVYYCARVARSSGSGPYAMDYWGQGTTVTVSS VL: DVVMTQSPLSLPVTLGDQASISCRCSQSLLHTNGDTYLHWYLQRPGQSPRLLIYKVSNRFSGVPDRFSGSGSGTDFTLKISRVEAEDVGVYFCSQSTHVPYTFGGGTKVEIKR    37
3-5 (antibody, V domains shown) VH: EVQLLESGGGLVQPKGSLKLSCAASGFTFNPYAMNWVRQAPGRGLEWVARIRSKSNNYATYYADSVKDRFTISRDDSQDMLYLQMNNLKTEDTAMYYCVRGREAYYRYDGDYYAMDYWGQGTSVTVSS VL: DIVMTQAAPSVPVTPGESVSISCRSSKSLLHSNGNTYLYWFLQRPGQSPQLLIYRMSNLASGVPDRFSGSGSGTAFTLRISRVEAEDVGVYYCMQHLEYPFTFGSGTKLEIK    49
3-28 (antibody, V domains shown) VH: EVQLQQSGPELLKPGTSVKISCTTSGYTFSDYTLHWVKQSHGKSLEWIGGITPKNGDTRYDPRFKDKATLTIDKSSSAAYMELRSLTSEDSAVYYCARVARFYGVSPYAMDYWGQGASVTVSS VL: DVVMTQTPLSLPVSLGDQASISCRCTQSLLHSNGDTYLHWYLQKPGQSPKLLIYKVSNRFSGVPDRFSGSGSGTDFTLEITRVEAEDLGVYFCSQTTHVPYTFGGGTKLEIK    47

Q. Fill in: hCCL1 (100 nM) residual response, Protocol #3, mAb 5 µg/mL of 3-45 (antibody, V domains shown) VH: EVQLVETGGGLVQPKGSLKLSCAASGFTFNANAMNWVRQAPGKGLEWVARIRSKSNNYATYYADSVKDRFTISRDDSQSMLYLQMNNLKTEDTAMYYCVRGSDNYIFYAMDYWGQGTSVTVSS VL: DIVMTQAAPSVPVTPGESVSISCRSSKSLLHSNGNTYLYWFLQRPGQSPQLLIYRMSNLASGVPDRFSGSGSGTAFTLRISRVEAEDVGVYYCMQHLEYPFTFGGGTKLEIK is ___
A. 48

Q. Also check 3-14 (antibody, V domains shown) VH: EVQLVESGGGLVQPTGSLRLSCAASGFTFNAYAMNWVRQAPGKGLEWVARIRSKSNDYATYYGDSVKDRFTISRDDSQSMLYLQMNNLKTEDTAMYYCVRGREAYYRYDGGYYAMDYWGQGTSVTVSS VL: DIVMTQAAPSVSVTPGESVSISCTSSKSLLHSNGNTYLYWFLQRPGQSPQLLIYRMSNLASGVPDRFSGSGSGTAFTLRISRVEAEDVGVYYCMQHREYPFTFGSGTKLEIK
A. 22

Q. Also check 3-11 (antibody, V domains shown) VH: EVQLVESGGGLVQPKGSLKLSCAASGFTFNTYAMNWVRQAPGKGLEWVARIRSKSNNYATYYADSVKDRFTISRDDSQSMLYLQMNNLKTEDTAMYYCVRGREAYYRYDGGYYAMDYWGQGTSVTVSS VL: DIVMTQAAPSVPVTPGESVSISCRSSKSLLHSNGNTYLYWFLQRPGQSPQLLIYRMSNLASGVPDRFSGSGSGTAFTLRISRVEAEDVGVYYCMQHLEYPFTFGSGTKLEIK
A. 48

Q. Also check 3-32 (antibody, V domains shown) VH: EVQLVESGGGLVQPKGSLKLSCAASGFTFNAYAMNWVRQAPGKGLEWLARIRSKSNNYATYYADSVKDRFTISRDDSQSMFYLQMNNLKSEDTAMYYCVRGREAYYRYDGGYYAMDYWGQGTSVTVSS VL: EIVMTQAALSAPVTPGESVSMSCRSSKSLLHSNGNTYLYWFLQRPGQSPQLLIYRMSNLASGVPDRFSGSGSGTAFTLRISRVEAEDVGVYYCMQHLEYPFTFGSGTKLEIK
A. 36

Q. Also check 3-29 (antibody, V domains shown) VH: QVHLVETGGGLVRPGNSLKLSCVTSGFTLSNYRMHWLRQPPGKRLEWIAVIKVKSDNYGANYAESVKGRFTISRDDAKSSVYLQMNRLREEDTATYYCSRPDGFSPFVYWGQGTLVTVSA VL: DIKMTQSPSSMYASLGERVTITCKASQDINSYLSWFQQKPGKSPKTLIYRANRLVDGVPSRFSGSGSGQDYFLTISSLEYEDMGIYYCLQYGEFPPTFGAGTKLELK
A. 30
